Assayed target: Muscarinic acetylcholine receptor M2 (Cavia porcellus)
Experiment description: Antagonistic activity against M2 muscarinic receptor in guinea pig left atrium derived by plotting log(DR - 1) vs log[antagonist]
Condition details: read-out: pA2 (converted)
Assay readout: log10 of Kb (log10 of the value in nM)
Plainly stated, the numbers are log10 of Kb given in nM.

# count of solved cases: 6
CCN(CC)CCCCCCN(CC(=O)N1c2ccccc2C(=O)Nc2cccnc21)Cc1ccccc1OC: 2.25
CN(CCCCCCN)CCCCCCCCN(C)CCCCCCN(CC(=O)N1c2ccccc2C(=O)Nc2cccnc21)CC(=O)N1c2ccccc2C(=O)Nc2cccnc21.O=C(O)C(=O)O.O=C(O)C(=O)O.O=C(O)C(=O)O.O=C(O)C(=O)O: 0.77
CCN(CC)CCCCCCN(CC(=O)N1c2ccccc2C(=O)Nc2cccnc21)CC(=O)N1c2ccccc2C(=O)Nc2cccnc21: 3.02
CN(CCCCCCCCN(C)CCCCCCN(CC(=O)N1c2ccccc2C(=O)Nc2cccnc21)CC(=O)N1c2ccccc2C(=O)Nc2cccnc21)CCCCCCN(CC(=O)N1c2ccccc2C(=O)Nc2cccnc21)CC(=O)N1c2ccccc2C(=O)Nc2cccnc21.O=C(O)C(=O)O.O=C(O)C(=O)O.O=C(O)C(=O)O.O=C(O)C(=O)O: 1.19
CCCCN(CC(=O)N1c2ccccc2C(=O)Nc2cccnc21)CC(=O)N1c2ccccc2C(=O)Nc2cccnc21: 3.20
COc1ccccc1CNCCCCCCNCCCCCCCCNCCCCCCN: 1.96

# context switch: different compound, same log10 of Kb
# log10 of Kb lookup, item CCN(CC)CCCCCCNCC(=O)N1c2ccccc2C(=O)Nc2cccnc21
2.40

====

Test system: Muscarinic acetylcholine receptors M2 & M3 (Cavia porcellus)
Experiment description: Selectivity ratio is the antilog of the difference between the pA2 values at guinea pig left atrium and ileum muscarinic receptors
Assay readout: Ratio
Lab note: record the figure alone, no unit after it.

# count of solved cases: 2
COc1ccccc1CNCCCCCCN(C)CCCCCCCCN(C)CCCCCCN(CC(=O)N1c2ccccc2C(=O)Nc2cccnc21)CC(=O)N1c2ccccc2C(=O)Nc2cccnc21.O=C(O)C(=O)O.O=C(O)C(=O)O.O=C(O)C(=O)O.O=C(O)C(=O)O: 98
CN(CCCCCCCCN(C)CCCCCCN(CC(=O)N1c2ccccc2C(=O)Nc2cccnc21)CC(=O)N1c2ccccc2C(=O)Nc2cccnc21)CCCCCCN(CC(=O)N1c2ccccc2C(=O)Nc2cccnc21)CC(=O)N1c2ccccc2C(=O)Nc2cccnc21.O=C(O)C(=O)O.O=C(O)C(=O)O.O=C(O)C(=O)O.O=C(O)C(=O)O: 49

# Ratio lookup, item COc1ccccc1CNCCCCCCN(C)CCCCCCCCN(C)CCCCCCNCc1ccccc1OC
48

# Ratio lookup, item CCN(CC)CCCCCCN(CC(=O)N1c2ccccc2C(=O)Nc2cccnc21)Cc1ccccc1OC
7

# Ratio lookup, item COc1ccccc1CN(CCCCCCN(C)CCCCCCCCN(C)CCCCCCN(CC(=O)N1c2ccccc2C(=O)Nc2cccnc21)Cc1ccccc1OC)CC(=O)N1c2ccccc2C(=O)Nc2cccnc21.O=C(O)C(=O)O.O=C(O)C(=O)O.O=C(O)C(=O)O.O=C(O)C(=O)O
26

====

The compounds listed here are annotated with their Kb.
Assayed target: Muscarinic acetylcholine receptor M3 (Cavia porcellus)
Sequence (Q8VH26 whole entry): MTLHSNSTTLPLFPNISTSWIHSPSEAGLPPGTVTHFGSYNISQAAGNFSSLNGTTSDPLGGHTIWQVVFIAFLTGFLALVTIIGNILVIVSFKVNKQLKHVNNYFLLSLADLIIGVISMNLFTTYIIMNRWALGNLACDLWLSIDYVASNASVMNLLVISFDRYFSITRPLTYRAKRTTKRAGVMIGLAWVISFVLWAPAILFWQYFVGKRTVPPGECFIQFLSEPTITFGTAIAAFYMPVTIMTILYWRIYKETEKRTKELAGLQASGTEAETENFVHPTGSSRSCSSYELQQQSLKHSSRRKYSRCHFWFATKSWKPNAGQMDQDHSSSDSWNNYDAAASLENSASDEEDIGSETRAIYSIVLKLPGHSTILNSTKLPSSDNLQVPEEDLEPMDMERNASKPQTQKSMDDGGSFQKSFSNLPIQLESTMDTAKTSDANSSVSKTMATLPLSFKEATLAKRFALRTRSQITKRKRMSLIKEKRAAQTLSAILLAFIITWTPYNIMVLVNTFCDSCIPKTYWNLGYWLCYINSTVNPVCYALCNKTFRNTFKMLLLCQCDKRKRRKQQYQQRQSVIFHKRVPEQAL
Experiment description: Antagonistic activity against M3 muscarinic receptor in guinea pig left ileum derived by plotting log(DR - 1) vs log[antagonist]
Format: functional, tissue-based
Condition details: read-out: pA2 (converted)
Respond with the bare value in nM.

COc1ccccc1CNCCCCCCN(C)CCCCCCCCN(C)CCCCCCNCC(=O)N1c2ccccc2C(=O)Nc2cccnc21: 575
COc1ccccc1CNCCCCCCNCCCCCCCCNCCCCCCN: 1550

# context switch: different compound, same Kb
Please state recorded Kb (tested on Muscarinic acetylcholine receptor M3 (Cavia porcellus)) of COc1ccccc1CN(CCCCCCN(C)CCCCCCCCN(C)CCCCCCNCC(=O)N1c2ccccc2C(=O)Nc2cccnc21)CC(=O)N1c2ccccc2C(=O)Nc2cccnc21.O=C(O)C(=O)O.O=C(O)C(=O)O.O=C(O)C(=O)O.O=C(O)C(=O)O
417
